- System: Mycobacterium smegmatis homogenate
- test name: Stability in Mycobacterium smegmatis homogenate (enzymatic hydrolysis)
- condition context: Mycobacterium smegmatis homogenate, 37°C; 48h
endpoint name: Degradation (%) 48h
Response body: numeric value in %, unit text excluded.

Data request: What value of Degradation (%) 48h on Mycobacterium smegmatis homogenate does CCCCCCCCNC(=O)c1cc([N+](=O)[O-])cc([N+](=O)[O-])c1 [Compound 7c, N-octyl-3.5-dinitrobenzamide] have?
Data returned: 5

Data request: Lookup CCCCCCCCCCCCOC(=O)c1ccccc1 [Compound 1e, Dodecyl benzoate]
Data returned: 30

Data request: Next up: CCCCCCCCNC(=O)c1ccc([N+](=O)[O-])cc1 [Compound 6c, N-octyl-4-nitrobenzamide]
Data returned: 5

====

- test name: Chemical stability in phosphate buffer pH 7.4
- condition context: 332h
Use class 1 when the recorded Degradation (%) 332h is no lower than 2%; use class 0 when it is lower.

Data request: For this compound, is measured Degradation (%) 332h 2% or higher? CCCCCCCCCCCCNC(=O)c1cc([N+](=O)[O-])cc(C(F)(F)F)c1 [Compound 8e]
Data returned: class 0

Data request: What about this compound? CCCCCCCCCCCCOC(=O)c1cc([N+](=O)[O-])cc(C(F)(F)F)c1 [Compound 4e]
Data returned: class 1

Data request: Thanks! And CCCCCCCCCCCCNC(=O)c1ccccc1 [Compound 5e, N-dodecyl-benzamide] ?
Data returned: class 0

Data request: // repeat for CCCCNC(=O)c1ccc([N+](=O)[O-])cc1 [Compound 6a, N-butyl-4-nitrobenzamide] and report
Data returned: class 0

Data request: Let us now turn to CCCCCCCCCCCCNC(=O)c1cc([N+](=O)[O-])cc([N+](=O)[O-])c1 [Compound 7e, N-dodecyl-3.5-dinitrobenzamide]
Data returned: class 0

Data request: Repeat with CCCCCCCCOC(=O)c1cc([N+](=O)[O-])cc([N+](=O)[O-])c1 [Compound 3c]
Data returned: class 1

Data request: What about this compound? CCCCCCCCOC(=O)c1ccccc1 [Compound 1c, Octyl benzoate]
Data returned: class 0

Data request: Next compound: CCCCNC(=O)c1cc([N+](=O)[O-])cc(C(F)(F)F)c1 [Compound 8a]
Data returned: class 0

Data request: Note, next up: CCCCNC(=O)c1cc([N+](=O)[O-])cc([N+](=O)[O-])c1 [Compound 7a, N-butyl-3.5-dinitrobenzamide]
Data returned: class 0

Data request: Let us now turn to CCCCCCCCOC(=O)c1ccc([N+](=O)[O-])cc1 [Compound 2c, Octyl 4-nitrobenzoate]
Data returned: class 1

Data request: Same lookup for CCCCCCCCCCCCOC(=O)c1ccccc1 [Compound 1e, Dodecyl benzoate] , please.
Data returned: class 0

Data request: CCCCNC(=O)c1ccccc1 [Compound 5a, N-butyl-benzamide] ?
Data returned: class 0

Data request: Entry CCCCCCCCNC(=O)c1cc([N+](=O)[O-])cc(C(F)(F)F)c1 [Compound 8c] please
Data returned: class 0

====

Provide the recorded MBC for the entries that follow.
- System: Mycobacterium tuberculosis H37Rv
- test name: MIC and MBC by broth microdilution against M. tuberculosis H37Rv
- Type: cell-based, Mycobacterium tuberculosis H37Rv (ATCC 27294)
- condition context: Mycobacterium tuberculosis, H37RV, M. tuberculosis H37Rv; Table 3; read-out: MBC

Data request: Item under review: CCCCOC(=O)c1ccccc1 [Compound 1a, Butyl benzoate] . Reported MBC?
Data returned: > 256 µg/mL

Data request: Then this compound: CCCCCCCCOC(=O)c1ccccc1 [Compound 1c, Octyl benzoate]
Data returned: > 256 µg/mL

Data request: Please give the result for CCCCCCCCCCCCNC(=O)c1ccccc1 [Compound 5e, N-dodecyl-benzamide] too.
Data returned: > 256 µg/mL

Data request: Query CCCCCCCCCCCCOC(=O)c1cc([N+](=O)[O-])cc(C(F)(F)F)c1 [Compound 4e] next
Data returned: > 1020 µg/mL

Data request: Next up: CCCCCCNC(=O)c1cc([N+](=O)[O-])cc(C(F)(F)F)c1 [Compound 8b]
Data returned: ≤ 0.5 µg/mL
